Tested on: Saccharomyces cerevisiae
Assay: Antimicrobial activity against Saccharomyces cerevisiae MTCC 170 after 24 hr by two-fold serial dilution method
Assay type: functional
Settings: MTCC 170, 24 h
Measured Quantity: MIC (µg/mL)

Example cases with answers are listed next.
CCCc1nnc2n1N=C(c1ccccc1)C(OC)S2 (stereo not drawn) : 256
CCOC1Sc2nnc(-c3ccccc3)n2N=C1c1ccccc1 (stereo not drawn) : 32
CCOC1Sc2nnc(CC)n2N=C1c1ccc(F)cc1 (stereo not drawn) : 128
COC1Sc2nnc(-c3ccccc3)n2N=C1c1ccccc1 (stereo not drawn) : 32
CCCOC1Sc2nnc(CCC)n2N=C1c1ccccc1 (stereo not drawn) : 64

I. COC1Sc2nncn2N=C1c1ccccc1 (stereo not drawn)
II. CCOC1Sc2nnc(CC)n2N=C1c1ccc(Cl)cc1 (stereo not drawn)
### Prompt Looking only at measured MIC, which entry is lower, I or II ? State your choice using its label.
### Response II
(II: 32 µg/mL, I: 128 µg/mL)

a. CC(C)OC1Sc2nncn2N=C1c1ccccc1 (stereo not drawn)
b. CCc1nnc2n1N=C(c1ccccc1)C(OC)S2 (stereo not drawn)
### Prompt Looking only at measured MIC, which entry is lower, a or b ? State your choice using its label.
### Response b
(b: 64 µg/mL, a: 128 µg/mL)

a. CC(C)OC1Sc2nnc(-c3ccccc3)n2N=C1c1ccccc1 (stereo not drawn)
b. CCOC1Sc2nnc(CC)n2N=C1c1ccc([N+](=O)[O-])cc1 (stereo not drawn)
### Prompt Looking only at measured MIC, which entry is lower, a or b ? State your choice using its label.
### Response b
(b: 64 µg/mL, a: 128 µg/mL)

A. CCOC1Sc2nncn2N=C1c1ccccc1 (stereo not drawn)
B. CCCOC1Sc2nnc(-c3ccccc3)n2N=C1c1ccccc1 (stereo not drawn)
### Prompt Form field 'greater MIC' accepts A or B ; which applies? State your choice using its label.
### Response A
(A: 128 µg/mL, B: 64 µg/mL)

====

System: Staphylococcus aureus
Experiment: Antimicrobial activity against Staphylococcus aureus MTCC 96 at 2 mg/ml after 24 hr by agar well diffusion method
Assay type: functional
Conditions: MTCC 96, 24 h, read-out: DIZ
Measured Quantity: zone of inhibition at 2000 µg/mL (mm)
Quick reminder: number only, in mm, skip the unit.

O=C(O)c1cn(C2CC2)c2cc(N3CCNCC3)c(F)cc2c1=O : 26.6
COC1Sc2nnc(-c3ccccc3)n2N=C1c1ccccc1 (configuration not stated) : 25.6
CCCc1nnc2n1N=C(c1ccccc1)C(OCC)S2 (configuration not stated) : 13.6
CCCOC1Sc2nnc(CC)n2N=C1c1ccc(Cl)cc1 (configuration not stated) : 12.6
CCc1nnc2n1N=C(c1ccc(Cl)cc1)C(OC)S2 (configuration not stated) : 19.3
CCc1nnc2n1N=C(c1ccc(Cl)cc1)C(OC(C)C)S2 (configuration not stated) : 11.3

With those in mind, consider the next compound.
### Prompt Write down the reported zone of inhibition at 2000 µg/mL of COC1Sc2nncn2N=C1c1ccccc1 (configuration not stated) , test system: Staphylococcus aureus.
### Response 19.6

====

This section presents compounds with their documented zone of inhibition at 2000 µg/mL values.
Test system: Staphylococcus aureus
Experiment: Antimicrobial activity against Staphylococcus aureus MTCC 96 at 2 mg/ml after 24 hr by agar well diffusion method
Assay type: functional
Conditions: MTCC 96, 24 h, read-out: DIZ
Quick reminder: number only, in mm, skip the unit.

Example cases with answers are listed next.
CCCc1nnc2n1N=C(c1ccccc1)C(OC)S2 (stereo not drawn) : 16
CC(C)OC1Sc2nncn2N=C1c1ccccc1 (stereo not drawn) : 14.6

### Prompt I would be grateful if you could share the reported zone of inhibition at 2000 µg/mL for CCOC1Sc2nncn2N=C1c1ccccc1 (stereo not drawn) .
### Response 16.3

====

Test system: Staphylococcus aureus
Assay: Antimicrobial activity against Staphylococcus aureus MTCC 96 at 2 mg/ml after 24 hr by agar well diffusion method
Format: functional
Settings: MTCC 96, 24 h, read-out: DIZ
This section presents compounds with their documented zone of inhibition at 2000 µg/mL values.
Quick reminder: number only, in mm, skip the unit.

Example cases with answers are listed next.
CCOC1Sc2nnc(CC)n2N=C1c1ccc(C)cc1 (configuration not stated) : 12.3
CCCOC1Sc2nncn2N=C1c1ccccc1 (configuration not stated) : 15.6
CCOC1Sc2nnc(CC)n2N=C1c1ccccc1 (configuration not stated) : 13.6
CCc1nnc2n1N=C(c1ccccc1)C(OC(C)C)S2 (configuration not stated) : 13.6

### Prompt I would be grateful if you could share the reported zone of inhibition at 2000 µg/mL for CCCOC1Sc2nnc(-c3ccccc3)n2N=C1c1ccccc1 (configuration not stated) .
### Response 20.6

### Prompt Do the same for CCOC1Sc2nnc(CC)n2N=C1c1ccc(Br)cc1 (configuration not stated) please
### Response 12.3

### Prompt Do the same for CC(C)OC1Sc2nnc(-c3ccccc3)n2N=C1c1ccccc1 (configuration not stated) please
### Response 18.3

====

This section presents compounds with their documented MIC values.
System: Saccharomyces cerevisiae
Test: Antimicrobial activity against Saccharomyces cerevisiae MTCC 170 after 24 hr by two-fold serial dilution method
Type: functional
Conditions: MTCC 170, 24 h
Quick reminder: number only, in mg/L, skip the unit.

CCc1nnc2n1N=C(c1ccc(Cl)cc1)C(OC)S2 (stereo not given) : 128

### Prompt I would be grateful if you could share the reported MIC for C[C@@H]1[C@H](O)[C@@H](C)/C=C/C=C/C=C/C=C/C=C/C=C/C=C/[C@H](O[C@@H]2O[C@H](C)[C@@H](O)[C@H](N)[C@@H]2O)C[C@@H]2O[C@](O)(C[C@@H](O)C[C@@H](O)[C@H](O)CC[C@@H](O)C[C@@H](O)CC(=O)O[C@H]1C)C[C@H](O)[C@H]2C(=O)O .
### Response 100

====

This section presents compounds with their documented zone of inhibition at 2000 µg/mL values.
Test system: Staphylococcus aureus
Experiment: Antimicrobial activity against Staphylococcus aureus MTCC 96 at 2 mg/ml after 24 hr by agar well diffusion method
Type: functional
Conditions: MTCC 96, 24 h, read-out: DIZ
Quick reminder: number only, in mm, skip the unit.

Example cases with answers are listed next.
CCOC1Sc2nnc(-c3ccccc3)n2N=C1c1ccccc1 (stereo not given) : 24.3
CCc1nnc2n1N=C(c1ccccc1)C(OC)S2 (stereo not given) : 22.3
CCCc1nnc2n1N=C(c1ccccc1)C(OC(C)C)S2 (stereo not given) : 12.3
CCCOC1Sc2nnc(CCC)n2N=C1c1ccccc1 (stereo not given) : 13.6

With those in mind, consider the next compound.
### Prompt I would be grateful if you could share the reported zone of inhibition at 2000 µg/mL for CCCOC1Sc2nnc(CC)n2N=C1c1ccccc1 (stereo not given) .
### Response 14

====

Tested on: Saccharomyces cerevisiae
Test: Antimicrobial activity against Saccharomyces cerevisiae MTCC 170 after 24 hr by two-fold serial dilution method
Assay type: functional
Settings: MTCC 170, 24 h
Measured Quantity: MIC

Example cases with answers are listed next.
CCc1nnc2n1N=C(c1ccc(Cl)cc1)C(OC(C)C)S2 (stereo not drawn) : > 256 µg/mL
CCCOC1Sc2nnc(CC)n2N=C1c1ccc(Cl)cc1 (stereo not drawn) : > 256 µg/mL

With those in mind, consider the next compound.
### Prompt I would be grateful if you could share the reported MIC for CCOC1Sc2nnc(CC)n2N=C1c1ccc(C)cc1 (stereo not drawn) .
### Response > 256 µg/mL
